Measured pKi of individual entries
molecular target: memapsin 2 (Homo sapiens); test: Inhibition of memapsin 2 beta-secretase activity toward fluorogenic substrate FS-2; assay type: biochemical; conditions: memapsin 2, pH 4, 37° C., 20 minutes pre-incubation, substrate FS-2; read-out: M2Ki
Sequence (P56817 46-501): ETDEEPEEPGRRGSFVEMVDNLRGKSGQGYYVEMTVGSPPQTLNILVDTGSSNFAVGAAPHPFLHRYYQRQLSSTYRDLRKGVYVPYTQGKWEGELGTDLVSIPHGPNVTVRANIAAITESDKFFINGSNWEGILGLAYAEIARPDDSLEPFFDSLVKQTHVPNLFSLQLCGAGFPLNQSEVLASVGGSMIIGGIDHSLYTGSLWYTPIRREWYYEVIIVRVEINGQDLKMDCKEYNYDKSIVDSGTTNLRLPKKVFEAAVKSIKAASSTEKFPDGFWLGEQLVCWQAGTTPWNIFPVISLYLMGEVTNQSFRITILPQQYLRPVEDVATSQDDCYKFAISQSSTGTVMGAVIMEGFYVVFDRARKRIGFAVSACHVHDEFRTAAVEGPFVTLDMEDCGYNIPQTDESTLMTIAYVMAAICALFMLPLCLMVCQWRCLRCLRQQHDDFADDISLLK
pKi: −log10 of the molar value.

Example cases with answers are listed next.
Cc1csc([C@H]2CCCN2C(=O)c2cc(C(=O)N[C@@H](Cc3ccccc3)[C@H](O)CNCc3cncc(C(C)C)c3)cc(C(F)F)c2)n1 > 7.00
Cc1cc(C(=O)N[C@@H](Cc2ccccc2)[C@H](O)CNCc2cncc(C(C)(C)F)c2)cc(C(=O)N2CCC[C@@H]2c2nc(C)cs2)c1 > 7.00
Cc1csc([C@H]2CCCN2C(=O)c2cncc(C(=O)N[C@@H](Cc3ccccc3)[C@H](O)CNCc3cccc(C(C)(C)C)c3)c2)n1 6.70 to 7.00
Cc1cc(C(=O)N[C@@H](Cc2ccccc2)[C@H](O)CNCc2cccc(C(F)(F)F)c2)cc(C(=O)N2CCC[C@@H]2c2nc(C)cs2)c1 > 7.00
Cc1csc([C@H]2CCCN2C(=O)c2cc(C(=O)N[C@@H](Cc3ccccc3)[C@H](O)CNCc3cncc(C(C)(F)F)c3)cc(N(C)C)c2)n1 > 7.00
Cc1csc([C@H]2CCCN2C(=O)c2cc(C(=O)N[C@@H](Cc3ccccc3)[C@H](O)CNCc3cncc(C(C)C)c3)cc(-n3cccc3)c2)n1 > 7.00

Lookup: Look up pKi: COc1cccc(CNC[C@@H](O)[C@H](Cc2ccccc2)NC(=O)c2cccc(C(=O)N3C[C@H](OC)C[C@@H]3c3nc(C)cs3)c2)c1
Found: < 6.70

Lookup: Look up pKi: COc1cccc(CNC[C@@H](O)[C@H](Cc2ccccc2)NC(=O)c2cc(OC)cc(C(=O)N3CCC[C@@H]3c3nc(C)cs3)c2)c1
Found: > 7.00

Lookup: Look up pKi: Cc1coc([C@H]2CCCN2C(=O)c2cc(C(=O)N[C@@H](Cc3ccccc3)[C@H](O)CNCc3cccc(C(F)(F)F)c3)ccn2)n1
Found: > 7.00

Lookup: Look up pKi: COc1cccc(CNC[C@@H](O)[C@H](Cc2ccccc2)NC(=O)c2cccc(C(=O)N3CS(=O)(=O)C[C@@H]3c3nc(C)cs3)c2)c1
Found: < 6.70

Lookup: Look up pKi: Cc1csc([C@H]2CCCN2C(=O)c2cc(C(=O)N[C@@H](Cc3ccccc3)[C@H](O)CNCc3cccc(C(F)(F)F)c3)cc(-n3cccc3)c2)n1
Found: > 7.00

Lookup: Look up pKi: COc1cccc(CNC[C@@H](O)[C@H](Cc2ccccc2)NC(=O)c2cccc(C(=O)N3CCCC3)c2)c1
Found: < 6.70
